Target: Matrix metalloproteinase-14 (Homo sapiens)
Assay: blockers of MT1-MMP proenzyme processing, primary screen, HT1080 RFP-PRO-GFP cells, GFP/RFP fluorescence (AID 651647)
Conditions: overnight, at 20 µM, percent of plate control window, DMSO zero
Among all 360,000 compounds or so, about 220 (0.061%) were called active.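 Rule for the calls: active = GFP/RFP ratio change of at least 30% with cell ATP level not reduced by more than half and red fluorescence within 50% of control; inactive = the rest, inconclusive results apart.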 Shown is part of a subset that was picked to be rich in actives.
Outcome codes: y = active, n = inactive

- COMPOUND: "Cc1[nH]c2ccccc2c1-c1ccc(Cl)nn1"
  CLASS: "n"
- COMPOUND: "CCCCCCCCOC1OC(CO)C(O)C(O)C1NC(C)=O (stereo unspecified)"
  CLASS: "n"
- COMPOUND: "COc1ccc(C)cc1Nc1nc(-c2c(C)[nH]c3ccccc23)cs1"
  CLASS: "y"
- COMPOUND: "O=C(COc1ncnc2c(Cl)cc(Cl)cc12)N1CCN(S(=O)(=O)c2ccccc2)CC1"
  CLASS: "n"
- COMPOUND: "COc1cc(C2C(N3C(=O)c4ccccc4C3=O)C(=O)N2c2ccc(C)c(C)c2)cc(OC)c1OC (stereo unspecified)"
  CLASS: "n"
- COMPOUND: "Cc1cccc(C)c1NC(=O)C(Cl)C(=O)c1ccccc1 (stereo unspecified)"
  CLASS: "n"

Data origin, for the record: PubChem BioAssay AID651647
